experiment: Solubility of X4P-001 as a function of pH; type: physicochemical; details: aqueous buffer; pH range 3.0 to 8.0 (freely soluble)

>  <CHEMICAL_STRUCTURE>
NCCCCN(Cc1nc2ccccc2[nH]1)[C@H]1CCCc2cccnc21

>  <solubility>
> 100 mg/mL

$$$$

###

assay: in vivo; details: terminal half-life

>  <CHEMICAL_STRUCTURE>
NCCCCN(Cc1nc2ccccc2[nH]1)[C@H]1CCCc2cccnc21

>  <half-life>
12 to 24 h

$$$$

Data credit: patent US20200138804A1
